Hi there, I'd appreciate the recorded CC50 at 192 h for every entry that follows.
test: Cytotoxicity against human HepG2(2.2.15) cells after 8 days by MTT assay; format: cell-based

Study these solved cases before continuing.
{"chemical_smiles": "CN(C)CCc1c[nH]c2ccccc12", "CC50 at 192 h": "> 100 µM"}
{"chemical_smiles": "Nc1ccn([C@@H]2CS[C@H](CO)O2)c(=O)n1", "CC50 at 192 h": "1170 µM"}
{"chemical_smiles": "[O-][N+](CCc1c[nH]c2ccccc12)(Cc1ccco1)Cc1ccco1", "CC50 at 192 h": "> 100 µM"}
{"chemical_smiles": "C[N+](C)([O-])CCc1c[nH]c2ccc(Cl)cc12", "CC50 at 192 h": "> 25 µM"}
{"chemical_smiles": "c1ccc(CN(CCc2c[nH]c3ccccc23)Cc2ccccc2)cc1", "CC50 at 192 h": "12.4 µM"}
{"chemical_smiles": "CC(C)CN(CCc1c[nH]c2ccccc12)CC(C)C", "CC50 at 192 h": "> 100 µM"}
{"chemical_smiles": "[O-][N+](CCc1c[nH]c2ccccc12)(Cc1ccccn1)Cc1ccccn1", "CC50 at 192 h": "56.5 µM"}
{"chemical_smiles": "c1ccc2c(CCN(CC3CC3)CC3CC3)c[nH]c2c1", "CC50 at 192 h": "> 100 µM"}
{"chemical_smiles": "c1ccc2c(CCN(CC3CCCCC3)CC3CCCCC3)c[nH]c2c1", "CC50 at 192 h": "> 33.3 µM"}
{"chemical_smiles": "CCCN(CCc1c[nH]c2ccccc12)CCC(C)C", "CC50 at 192 h": "> 25 µM"}

# return CC50 at 192 h for each item in the list
1. CC(C)CCN(CCc1c[nH]c2ccccc12)Cc1cccs1
2. [O-][N+](CCc1c[nH]c2ccccc12)(CC1CC1)CC1CC1
3. CCCN(CCC)CCc1c[nH]c2ccccc12
4. CC(C)CCN(CCc1c[nH]c2ccccc12)CCC(C)C
5. C[N+](C)([O-])CCc1c[nH]c2ccc(O)cc12
6. CC(C)CCN(CCc1c[nH]c2ccccc12)Cc1ccco1

Response line:
1. > 25 µM
2. > 100 µM
3. > 100 µM
4. 40.6 µM
5. > 25 µM
6. > 25 µM

# return CC50 at 192 h for each item in the list
1. CCN(CC)CCc1c[nH]c2ccccc12
2. CC(C)CCN(CCc1cn(S(=O)(=O)c2ccccc2)c2ccccc12)CCC(C)C
3. O=[N+]([O-])c1cccc(CN(CCc2c[nH]c3ccccc23)Cc2cccc([N+](=O)[O-])c2)c1

Response line:
> 100 µM
15 µM
> 100 µM

Prompt line: I am curious: what CC50 at 192 h value has been reported for `CC[N+]([O-])(CC)CCc1c[nH]c2ccccc12` ?
Response line: > 100 µM
